Cited source for all entries: the supplement of paper PMC8967900

system: 697; experiment: selective drug sensitivity score (sDSS, relative to normal bone marrow) (sDSS (score)); higher = more potent and effective on the cell line relative to normal bone marrow cells; conditions: 72 h;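 further: ALL cell lines in 384-well plates, five doses spanning 10,000-fold, each plate scaled between vehicle and 100 µmol/L benzalkonium chloride controls, sDSS an adapted area-under-curve metric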
property-name: selective drug sensitivity score
Kindly provide the number alone.

For orientation, consider the following solved cases.
Sure, the documented selective drug sensitivity score for Cn1cncc1[C@@](N)(c1ccc(Cl)cc1)c1ccc2c(c1)c(-c1cccc(Cl)c1)cc(=O)n2C [Tipifarnib] (top concentration 10000 nM) is 6.9

Note to self: selective drug sensitivity score recorded for CS(=O)(=O)N1CCN(Cc2cc3nc(-c4cccc5[nH]ncc45)nc(N4CCOCC4)c3s2)CC1 [Pictilisib] (top concentration 10000 nM) was 7.36

selective drug sensitivity score recorded for this compound, Cc1ccc(C(=O)Nc2cccc(C(F)(F)F)c2)cc1Nc1nc(-c2cccnc2)nc2c1cnn2C [NVP-BHG712] (top concentration 10000 nM) , is 3.78

# compound Cc1ccc(C(=O)Nc2ccc(Oc3cc4cnn(C)c4cc3-c3cn[nH]c3)c(F)c2)c(=O)n1-c1ccc(F)cc1 [Merestinib] (top concentration 1000 nM) ; its selective drug sensitivity score = 0.48

response.value for Cc1cccc(-c2nn3c(c2-c2ccnc4ccc(C(N)=O)cc24)CCC3)n1 [Galunisertib] (top concentration 1000 nM) (field: selective drug sensitivity score) = 0

More entries:
selective drug sensitivity score recorded for this compound, CC1(C)CNc2cc(NC(=O)c3cccnc3NCc3ccncc3)ccc21 [Motesanib] (top concentration 10000 nM) , is -0.22

Documented selective drug sensitivity score of C=CCN(/C=C1/C(=O)O[C@H](COC)[C@@]2(C)C1=C(O)C(=O)C1=C2[C@H](OC(C)=O)C[C@]2(C)C(=O)CC[C@@H]12)CC=C [Sonolisib] (top concentration 10000 nM) : 0.24

O=C(CCCCCCC(=O)Nc1ccc([C@H]2O[C@@H](CSc3nc(-c4ccccc4)c(-c4ccccc4)o3)C[C@@H](c3ccc(CO)cc3)O2)cc1)NO [Tubacin] (top concentration 10000 nM) has a reported selective drug sensitivity score of 8.54

The reported selective drug sensitivity score of the compound Cc1ncc(-c2ccnc(Nc3ccc(S(C)(=O)=O)cc3)n2)n1C(C)C [AZD-5438] (top concentration 10000 nM) was 0.94

The compound listed as CCn1cc(-c2ccnc3[nH]c(-c4cccc(CN(C)C)c4)cc23)c(-c2ccc(NC(=O)N(C)C)cc2)n1 (top concentration 1000 nM) shows selective drug sensitivity score equal to 20.5

The recorded selective drug sensitivity score for entry COc1cccc(-c2ccc(NC(=O)C3=C(C(=O)O)CCC3)c(F)c2)c1 [Vidofludimus] (top concentration 10000 nM) equals 6

Quick note, selective drug sensitivity score for CN(CC(=O)N(Cc1ccc(C2CCCCC2)cc1)c1ccc(C(=O)O)cc1)S(=O)(=O)c1c(F)c(F)c(F)c(F)c1F [SH-4-54] (top concentration 25000 nM) landed at -2.64

----------
test system: COG-LL-319h; assay: selective drug sensitivity score (sDSS, relative to normal bone marrow) (sDSS (score)); higher = more potent and effective on the cell line relative to normal bone marrow cells; settings: 72 h
The threshold is inclusive: selective drug sensitivity score of exactly 4 counts as Fulfilled; values below receive Not fulfilled.

Data request: Is selective drug sensitivity score at least 4? Consider CCOCc1nc2c(N)nc3ccccc3c2n1CC(C)(C)O [Resiquimod] (top concentration 10000 nM)
Data returned: Fulfilled

Data request: Could you please find out whether Cc1nc(C(=O)NCC(=O)O)c(O)c2ccc(Oc3ccccc3)cc12 [Roxadustat] (top concentration 10000 nM) has selective drug sensitivity score that meets 4 or exceeds it?
Data returned: Not fulfilled

Data request: // inclusive: selective drug sensitivity score at least 4? input: COC[C@H](NC(=O)c1cnc(C)s1)C(=O)N[C@@H](COC)C(=O)N[C@@H](Cc1ccccc1)C(=O)[C@@]1(C)CO1 [Oprozomib] (top concentration 2500 nM)
Data returned: Not fulfilled

Data request: Please tell me: is the compound Cc1ccc(F)c(NC(=O)Nc2ccc(-c3cccc4[nH]nc(N)c34)cc2)c1 [Linifanib] (top concentration 1000 nM) at or over 4 in terms of selective drug sensitivity score?
Data returned: Not fulfilled

Data request: Threshold query (selective drug sensitivity score >= 4) on C=CCN(/C=C1/C(=O)O[C@H](COC)[C@@]2(C)C1=C(O)C(=O)C1=C2[C@H](OC(C)=O)C[C@]2(C)C(=O)CC[C@@H]12)CC=C [Sonolisib] (top concentration 10000 nM)
Data returned: Fulfilled

Query compound follows.
Data request: Test whether the compound N#CCNC(=O)c1ccc(-c2ccnc(Nc3ccc(N4CCOCC4)cc3)n2)cc1 [Momelotinib] (top concentration 10000 nM) records selective drug sensitivity score of 4 or higher.
Data returned: Not fulfilled
